molecular target: Recombinant human his-tagged IGF R extracellular domain protein (human) (UniProt P08069); assay: SPR, Ab captured via anti-huIgG Fc, dissociation at pH 6
recorded endpoint: koff
Answer with the number, then the unit.

Looking up VRDN-02063 (antibody, V domains shown) VH: QVQLQESGPGLVKPSETLSLTCTVSGYSITGGYLWNWIRQPPGKGLEWIGYISYHGTNNYKPSLKDRVTISRDTSKNQFSLKLSSVTAADTAVYYCARYGRVFFDYWGQGTLVTVSS VL: DIVMTQSPLSLPVTPGEPASISCRSSQSIVHSNGNTYLQWYLQKPGQSPQLLIYKVSNRLYGVPDRFSGSGSGTDFTLKISRVEAEDVGVYYCFHGSHVPWTFGQGTKVEIK , I see its koff listed as 3.97e-05 s⁻¹

Sample VRDN-02075 (antibody, V domains shown) VH: QVQLQESGPGLVKPSETLSLTCTVSGYSITGGYLWNWIRQPPGKGLEWIGYISYHGTNNYKPSLKDRVTISRDTSKNQFSLKLSSVTAADTAVYYCARHGRVFFDYWGQGTLVTVSS VL: DIVMTQSPLSLPVTPGEPASISCRSHQSIVHSNGNTYLQWYLQKPGQSPQLLIYKVSNRLYGVPDRFSGSGSGTDFTLKISRVEAEDVGVYYCFQGSHVHWTFGQGTKVEIK ; koff observed: 5.52e-05 s⁻¹
